Test system: LDL
Assay: LDL antioxidation test (CuCl2-initiated LDL oxidation, lag time)
Assay type: biochemical, human
Conditions: Table 3; 10 μM

| Compound | System Under Test | Comparative Sign | % Increase in Time [%] |
| --- | --- | --- | --- |
| Oc1ccc(C2=Cc3ccc(O)cc3OC2)cc1 | LDL | > | 600 |
| O=C1c2ccc(O)cc2OCC1c1ccc(O)cc1 (stereo not shown) | LDL | = | 0 |
| Oc1ccc(C2COc3cc(O)ccc3C2O)cc1 (stereo not shown) [Cpd. 8] | LDL | > | 600 |
| Oc1ccc(C2COc3cc(O)ccc3C2O)cc1 (stereo not shown) [Cpd. 7] | LDL | = | 100 |

###

System: rat isolated aortic rings
Experiment: Vasodilatory capacity in noradrenaline pre-constricted aortic rings and mechanism of action (Protocol 2a/2b)
Conditions: indomethacin 10 μM
Quantity Name: vasodilatory response: effect of indomethacin

| Compound | System Under Test | Result |
| --- | --- | --- |
| C[C@]12CC[C@@H]3c4ccc(O)cc4CC[C@H]3[C@@H]1CC[C@@H]2O [β-estradiol, 1,3,5[10]-estratriene-3,17β-diol, reference compound] | rat isolated aortic rings | did not influence |
| Oc1ccc(C2COc3cc(O)ccc3C2O)cc1 (stereo not shown) [Cpd. 7] | rat isolated aortic rings | did not influence |
| O=C1c2ccc(O)cc2OCC1c1ccc(O)cc1 (stereo not shown) | rat isolated aortic rings | did not influence |

All values here come from patent US20050119301A1.
